system: MS2 coat protein; assay: apparent KD of MS2 coat protein; higher = weaker reporter binding; details: Eterna round: R107; input ligand: arginine 13.2 mM
# apparent KD of MS2 coat protein values compiled below
Response body: numeric value in nM, unit text excluded.

Before answering, review these 4 worked examples.
>  <Chain Sequence>
AUAAGUAUGUUUUCGUGUUUUAUUACAGAUACCAGACUAUACGUUGUCCCUUGGCAGCUGGAUUACAUGAGGAUCACCCAUGUUG [#26 Exclusion-TheophyllineA]

>  <Value Units>
nM

>  <apparent KD of MS2 coat protein>
19.9

$$$$
>  <Chain Sequence>
GCACCAGGUACGGAUACCAGAGCAAGCCAAAUGAGUGAACUUGAGGAUCACCCAAGUUUGCUCCCUUGGCAGCCGUACCUGGUGC [ETB NP+V+V2 #12 Diff Apt, +-Same Structure]

>  <Value Units>
nM

>  <apparent KD of MS2 coat protein>
7.29

$$$$
>  <Chain Sequence>
UGUUUUGUGGGAAGGAGCGCAUACUUCACAUGAGGAUCACCCAUGUCAAGACGUGAGUCAGUGCAGGUAGGUCGCCUAGUUAAGA [Same State - Arginine B (Freestyle 16)]

>  <Value Units>
nM

>  <apparent KD of MS2 coat protein>
52.8

$$$$
>  <Chain Sequence>
CGAGUCCGCUGAUGGGCUAAGUCAGGUGAUACCAGCCACUCCCGCGGCCCUUGGCAGCACAUGAGGAUCACCCAUGUAGGGCUUG [Iserbele]

>  <Value Units>
nM

>  <apparent KD of MS2 coat protein>
19.2

$$$$

Could you share which apparent KD of MS2 coat protein value was measured for UUUACCGACACAGAUCACUAAAACCUUGAUACCAGUCCCAGUGGCGACCCUUGGCAGCAAUAUACAUGAGGAUCACCCAUGUGCA [theeternabot_exclusion_MS2_Theo_A_1] ?
13.7

For the sequence AAUUCCUAACAUGAGGAUCACCCAUGUGAAGGAGCGCGGAAUAACGCAGGUAGGUCGCACAUGGAACCGCUGCGAUAGCAGCAAA [MAT - Exclusion Arginine A - Mod of Eli - D29] , what apparent KD of MS2 coat protein is on record?
8.66

Look up apparent KD of MS2 coat protein for this sequence: AGCAGUACAACAGAUACCAGACUUUUCAUGCCUUUAAUUACAUGAGGAUCACCCAUGUUUGUCCCUUGGCAGCUGUUGUACUGCA [JR_ExcTheophyB_Sub011]
29.5

Please report the recorded apparent KD of MS2 coat protein for GUUUUCAAGUCGGCCGCCACUGAUACAAUCCUCACCGGUUCACAUGAGGAUCACCCAUGUUCGCUCAGGACCGGGACCUUCUGUG [theeternabot_exclusion_MS2_Trp_B_3] .
77.4

Endpoint output: apparent KD of MS2 coat protein of CGUAUCGUAACUGAUACCAGUGUACUGACAUGAGGAUCACCCAUGUUGGGUUUUGUUGUACACCCUUGGCAGCAGAAUCGAUACG [AstrosExyTheB#6] . Value?
52.1

What does the record list as apparent KD of MS2 coat protein for UUGGGUUUGUGAAGGAGCGGGAAAGUUUUAUAGUGGAUCCUAACAUGAGGAUCACCCAUGUCCCAGGUAGGUCGCGCGGGUUUGG [12.R] ?
60.7

Return reported apparent KD of MS2 coat protein; argument: UAAUGUGAGAGAAGGAGCGGAGGUCUCGUUACAACAUGAGGAUCACCCAUGUAACGUACCGUCCAGGUAGGUCGCUCUCGGGCGC [lvacmullin]
17.4

Data request, read-out apparent KD of MS2 coat protein, for GGAAUUAAGACUGAUACCAGUCAAGAUAAUCAUAAGAAUAAACAUGAGGAUCACCCAUGUGACCCUUGGCAGCAGACUAAUACCG [Same State Theophylline B GF 26]
38.5

Suppose we examine the sequence UGACAUUGCUCAGAUACCAGACACGAGGAUCACCCGUGUGCCAACAAGUACAAAAUAAAUGUCCCUUGGCAGCUGAGCAAUGUCU [TheoBX 24 #MS2Left #AlternativeMS2 #Theo22] ; what apparent KD of MS2 coat protein value has been reported?
11.9

Return reported apparent KD of MS2 coat protein; argument: AAUUCCGGGUCGGCCGCCACUGAUAUGGCGAGUCCUCGAACUUACAUGAGGAUCACCCAUGUAAACAGGACCGGGACCGCAUGGG [Exclusion Tryptophan B GF 23]
16.3

Recorded apparent KD of MS2 coat protein for GCAUCCUAGUCGGCCGCCACUGCAAUUGUAAUACUGCUACAUGAGGAUCACCCAUGUCCAUGUAGCAGGACCGGGACUAGGAUGC [SS Tryp B #16] , please?
142

Give the measured apparent KD of MS2 coat protein of UCGCCAUUGACGGCCGCCACUCAAUGGUCUUCUCUGAACAUAAUUAACAUGAGGAUCACCCAUGUGAGGACCGGGUCGGUUAGAC [theeternabot_exclusion_MS2_Trp_B_24] .
17.4

What value of measured apparent KD of MS2 coat protein is listed for ACGCCCAGGUAGGCUUAGUGGGAUAUGGAAGGAGCGCCGAUGCAGGCAGGUAGGUCGCCAUAGAACAUGAGGAUCACCCAUGUAA [#05 Same State - Arginine A] ?
31.3

Data request, read-out apparent KD of MS2 coat protein, for CGGCCCUCACCUGAGGAACACCCAGGUGAUACCAGCCUGGAAACAGGCCCUUGGCAGCACCAGGUCAUCAAAGAUGACCAAGCCG [TheoAX 24 #SwitchBubble #AlternativeMS2]
20.8

# get_value(readout='apparent KD of MS2 coat protein', item= CUCUCAUGAACAUGAGGAUCACCCAUGUAACGAGGACCGGUACGGCCGCCACUCGAACGUGGAUACCAAUCGAGUGGGUGAGAGA [Tryp A Ex t5] )
31

For GGGCCCGGGCGCGAGCCCGGGCCCAUUGAUACCAGUGAAUGUGUGCGCCCUUGGCAGCGAAUCCUAACAUGAGGAUCACCCAUGU [5.E] , what is its reported apparent KD of MS2 coat protein?
16.2

What value of apparent KD of MS2 coat protein has been recorded for this entry: AAACAUGAGGAUCACCCAUGUAUACUUAGACGAGGACCGGUACGGCCGCCACUCGAACUUCAAGAUUUGGCGGAUAAUGUAUGUA [JR_Nu22_ExcTryptoA_Sub023]
9.74

Form field: reported apparent KD of MS2 coat protein of ACAUGAGGAUCACCCAUGUGGAGCAGGGUACGAGGACCGGUACGGCCGCCACUCGAGCGUUAUGACGAGUGAAUGGCAACGAUGU [whbob_X-Trypto_A_V1.0]
9.93
